Assay: gradient 5% acetonitrile 3 min, to 50% in 2 min, to 85% in 15 min, held 3 min, 100 µL/min
Conditions: column: Zorbax Extend-C18 2.1 x 50 mm; eluents: water / acetonitrile, 0.1% formic acid
Listing of entries alongside the reported RP-LC retention time.

compound | RP-LC retention time [s]
CCOC(=O)C1CCN(C(=O)c2nnc(-c3ccc(S(=O)(=O)N4CCOCC4)cc3)o2)CC1 | 826
CCOc1ccc(NC(=O)NC2CCN(c3cc(C)cc(C)c3)C2=O)cc1 (centres undefined) | 886
O=C(NC1CCCCCC1)C1CCCN(c2nccnc2Oc2ccccc2)C1 (centres undefined) | 1060
CCN1C(=O)CCc2cc(NC(=O)c3ccsc3)ccc21 | 715
Cc1ccc(NC(=O)Nc2cccn3nc(C(C)C)nc23)cc1 | 964
COc1nn(C)cc1C(=O)Nc1nc(-c2nc3ccccc3s2)cs1 | 837
Cc1cnc(C(=O)N2CCC(c3noc(-c4ccncc4)n3)C2)cn1 (centres undefined) | 645
Cc1ccc(Sc2c(-c3ccccc3)nc3ncccn23)cc1 | 1040
Cc1nnc(NC(=O)CN2CCc3nc(NC(=O)c4cnccn4)sc3C2)s1 | 546
Cc1nc(OCC(=O)Nc2ccc(Br)cc2)c2ccccc2n1 | 794
COC(=O)c1c(C)[nH]c(C(=O)N2CCC(CC(=O)NC(C)C)CC2)c1C | 663
COc1ccc(S(=O)(=O)N2CCCC(C(=O)NCC3CCCO3)C2)cc1OC (centres undefined) | 684
Nc1cc(C2CCN(C(=O)c3ccccc3Br)CC2)no1 | 676
Cc1ccc(C(=O)NCC2CN(C(C)C)CC23CCCCC3)s1 (centres undefined) | 670
O=S(=O)(c1ccc2c(c1)OCCO2)N1CCCn2nc(-c3cccnc3)cc2C1 | 621
Cc1nn(C(=O)CCc2ccccc2)c(C)c1S(=O)(=O)N1CCCC1 | 1180
CCCc1noc(-c2ccc3nnc(CC(=O)N4CCSCC4)n3c2)n1 | 755
CNc1nc(Nc2ccccc2)nc2ccccc12 | 633
Cc1ccc(NC(=O)CN2C(=O)CCc3cc(Br)ccc32)cc1 | 931
Cc1ccc2c(Nc3cc(F)ccc3F)c(C(=O)OC(C)C)cnc2n1 | 771
CCn1nccc1-c1cccc(-c2noc(-c3ccc4cc[nH]c4c3)n2)c1 | 1140
Cc1cc2c(c(=O)n(-c3ccccc3)c(=O)n2CC(=O)N(C)c2ccccc2)n1C | 806
COc1ccc(C2(C(=O)N3CCN(C(=O)c4cc(-c5cccnc5)n[nH]4)CC3)CC2)cc1 | 621
Cc1c(-c2noc(-c3ccc4c(c3)OCO4)n2)nnn1-c1ccc(F)cc1 | 745
N#CCc1ccc(NC(=O)C2CCCN(S(=O)(=O)Cc3ccc(Cl)cc3)C2)cc1 (centres undefined) | 905
CCCNc1cc(N2CCCC(CCC(=O)Nc3ccc(OC)c(OC)c3)C2)ncn1 (centres undefined) | 667
CCN1C(=O)COc2ccc(-c3nc(NC(=O)CCC4CCCCC4)sc3C)cc21 | 1240
CCc1ccc(C2=C(C)C(N3CCC(C(=O)NCCc4ccco4)CC3)=NS2(=O)=O)cc1 | 882
Cc1ccc(C)c(-c2csc(NC(=O)c3ccc(C)o3)n2)c1 | 1100
COc1ccc(N2CC(c3nc(-c4cccnc4)no3)CC2=O)cc1OC (centres undefined) | 665
O=C1CCN(C(=O)C2CCN(C(=O)c3cccs3)CC2)CCCCCCN1 | 639
COc1ccc(-c2noc(-c3cccnc3N3CCN(c4ccccc4)CC3)n2)cc1 | 1290
O=C(Cn1cnc2nc(N3CCC(C(=O)NC4CC4)CC3)sc2c1=O)Nc1ccc(Cl)cc1 | 686
CCC(C)C(NC(=O)c1cc(OC)c(OC)c(OC)c1)C(=O)Nc1nc2ccccc2[nH]1 (centres undefined) | 725
O=C(Nc1ccc(F)cc1F)C1CCc2nc(N3CCOCC3)ncc2C1 (centres undefined) | 734
CC(=O)c1ccc(NC(=O)CN2C(=O)CC(c3ccccc3)=Nc3cccnc32)cc1 | 780
COc1cc2nccc(Oc3ccc(NC(=O)Nc4ccc(F)cc4F)c(F)c3)c2cc1OC | 782
CC(C)c1cccc(NC(=O)Cn2cnc3nc(N4CCC(C(=O)NC5CC5)CC4)sc3c2=O)c1 | 743
O[C@@H]1CCCCC1N1CCC(c2ccccc2)CC1 (some centres undefined) | 702
